- Test system: Streptococcus pneumoniae 1175
- Format: cell-based
- TEST CONTEXT: S. pneumoniae 1175 (mefA); microtiter broth dilution
MEASURED ATTRIBUTE: MIC S. pneumo. 1175 (µg/mL)
Provide the reading as a plain figure in µg/mL.

The following compounds have reported results that may help.
{"columns": ["COMPOUND", "ASSAY SYSTEM", "MIC S. pneumo. 1175 / µg/mL"],
 "data": [
  ["CCC1OC(=O)C(C)C(=O)C(C)C(OC2OC(C)CC(N(C)C)C2O)C(C)(OC)CC(C)C(=O)C(C)C2N(CC3CCCN3C(=O)c3cccc4nccnc34)C(=O)OC12C (centres unmarked)", "Streptococcus pneumoniae 1175", 0.25],
  ["CCC1OC(=O)C(C)C(=O)C(C)C(OC2OC(C)CC(N(C)C)C2O)C(C)(OC)CC(C)C(=O)C(C)C2N(CC3CCCN3C(=O)c3cnn4cccnc34)C(=O)OC12C (centres unmarked)", "Streptococcus pneumoniae 1175", 0.5]
]}

Entry under review: CC[C@H]1OC(=O)[C@H](C)C(=O)[C@H](C)[C@@H](O[C@@H]2O[C@H](C)C[C@H](N(C)C)[C@H]2O)[C@](C)(OC)C[C@@H](C)C(=O)[C@H](C)[C@H]2N(CC3(O)CN(S(=O)(=O)c4c(C)n[nH]c4C)C3)C(=O)O[C@]12C . Reported MIC S. pneumo. 1175? 4

Name the reported MIC S. pneumo. 1175 value associated with the compound CCC1OC(=O)C(C)C(=O)C(C)C(OC2OC(C)CC(N(C)C)C2O)C(C)(OC)CC(C)C(=O)C(C)C2N(CC3CCN(C(=O)c4ccc5ncccc5c4)C3)C(=O)OC12C (centres unmarked) [11.18] 2
